- test_target: T1, mucin domain-deleted Sudan GP (GPdMuc) (Sudan virus (SUDV), UniProt Q7T9D9 33-632)
- T1 construct: also called Sudan GPdMuc; GP(S)dMuc
- protocol_description: BLI competition on Sudan GPdMuc (lower table); competitor 316L
measurement_type: % inhibition of binding (%)
Quick reminder: number only, in %, skip the unit.

Query block: Item antibody 102S (antibody, V domains shown) VH: EVQLVESGGGLVQPGGSLRLSCSASGFTFHSYDMNWARQAPGKGLEWVSEISSSGQSKNYADSVRGRFTISRDNAKNSLYLQINSLRSEDTAVYYCARVGFVAKFGSDFSITHGTYYLDYWGQGTLVTVSS VL: QLVLTQSPATLSLSPGERATLSCRASQSVSNYLAWYQQKPGQAPRLLIYDASNRAPGVPARFSGSGSGTDFSLTISSLEPEDFAVYYCLQRSNWPPWTFGQGTKVEIK has what recorded % inhibition of binding?
Result block: 10.3

Query block: Now consider antibody 578S (antibody, V domains shown) VH: EVQLVESGGGVVQPGRSLRLSCAASGFTFSSYELHWVRQAPGKGLEWVAVISYDGSSKYYADSLKGRFTISRDNSKNTLSLQMNSLRAEDTAMYYCVRQSEAYCSDGRCDWRRALDIWGQGTMVTVSP VL: DIQMTQSPSSLSASVGDRVTITCQASQDIKNYLNWYQQKPGKAPKLLIYDVSKLETGVPSRFSGSGSGTDFSFTISSLQPEDIATYYCQQYDNLPSYTFGQGTKLEIK .
Result block: 7.8

Query block: Now consider antibody 285S (antibody, V domains shown) VH: QVQLVQSGAEVKKPGSSVKVSCKASGGTFSTYAITWVRQAPGQGLEWMGRIIPILRVANYAQKFQGRVTITADSSTSTAYMELSSLRSEDTAVYYCANLLAYCGGDCRSDYWGQGTLVTVSS VL: EIVLTQSPGTLSLSPGERATLSCRASQSVKNSYLAWYHQKPGQAPRLLIYGASSRATGIPDRFSGSGSGTDFTLTISRLEPEDFAVYYCQQYGSSLWTFGQGTKVDVK .
Result block: -6.78

Data credit: patent US20260209316A1
